The measurements presented in this section are drawn from PubChem BioAssay AID1508600.

# Procedure summary: Components of the Cytosolic LPS Sensing Pathway: Gene Identification via Genome-wide siRNA Screen;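 further: robust z of the log signal after scaling to non-targeting control siRNA wells of the plate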
# Protocol conditions: RAW264.7 macrophages, IL-1a HTRF, actives lie on both sides, screened at 100 nM (by protocol), cells primed 5 h with Pam3CSK4 first
Hit rate of the full screen: of about 53,000 sequences, about 3,700 (7%) were called active.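 How the source made its calls: active means gene knockdowns whose robust z-score for IL-1 alpha signal is at least 2 or at most -2, so actives lie on both sides; inactive means the rest.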 The entries come from a sample that favours actives as a whole.
Form entry, call: pick from active, inactive

Give the logged outcome of this assay for the following sequence: GGCCUUUCACAACAUAAAATT against Chil6 inactive

Give the logged outcome of this assay for the following sequence: GCUGAAGUAGGGUUUAUUATT against Gdap10 inactive

Give the logged outcome of this assay for the following sequence: GCUAUUCAAUGGACCAGAATT against Olfr490 active

Give the logged outcome of this assay for the following sequence: CCAAGCCAAGCAAUCUUGATT against Chat inactive

Give the logged outcome of this assay for the following sequence: CGAACGUGAUGAGUUAUGGTT against Vmn1r83 active

Give the logged outcome of this assay for the following sequence: CCCUCAGAUCUUUCAGUCUTT against Btbd16 inactive

----------
# Procedure summary: Components of the Cytosolic LPS Sensing Pathway: Gene Identification via Genome-wide siRNA Screen;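 further: robust z of the log signal after scaling to non-targeting control siRNA wells of the plate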
# Protocol conditions: RAW264.7 macrophages, IL-1a HTRF, actives lie on both sides, screened at 100 nM (by protocol), cells primed 5 h with Pam3CSK4 first
The whole screen tested about 53,000 sequences, of which about 3,700 (7%) were called active. This excerpt belongs to a sample that is enriched for actives.
Property measured: z-score
I only need the number, thanks.

Find the recorded z-score belonging to GGGUGAAAGAAAGAAAGAATT against Plp1 and report it. -0.883

Find the recorded z-score belonging to CCUUCAUUCUCAUUGGCAUTT against Olfr591 and report it. -0.163

Find the recorded z-score belonging to GCAUCGUUAUGCGCCUCACTT against Neurog2 and report it. 0.297

----------
Property: z-score; scope: individual sequences
# Procedure summary: Components of the Cytosolic LPS Sensing Pathway: Gene Identification via Genome-wide siRNA Screen;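 further: robust z of the log signal after scaling to non-targeting control siRNA wells of the plate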
# Protocol conditions: RAW264.7 macrophages, IL-1a HTRF, actives lie on both sides, screened at 100 nM (by protocol), cells primed 5 h with Pam3CSK4 first
Screen size: about 53,000 sequences; about 3,700 (7%) were called active. This is one part of a sample in which actives are shown more often than they occur.
I only need the number, thanks.

See these solved cases before continuing.
{"columns": ["Chain", "z-score"],
 "data": [
  ["GGCAGACAGAGGGUAAAAATT against Slc24a1", -0.956],
  ["AAAGGACUGCCUAAGACAATT against Vmn1r203", -0.921]
]}

Find the recorded z-score belonging to GGCAACUUGAUUGUAAACUTT against Zic2 and report it. 0.795

Find the recorded z-score belonging to CGACAACCACUUCAACUAUTT against Chn2 and report it. 1.34

----------
# Procedure summary: Components of the Cytosolic LPS Sensing Pathway: Gene Identification via Genome-wide siRNA Screen;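 further: robust z of the log signal after scaling to non-targeting control siRNA wells of the plate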
# Protocol conditions: RAW264.7 macrophages, IL-1a HTRF, actives lie on both sides, screened at 100 nM (by protocol), cells primed 5 h with Pam3CSK4 first
# Procedure: Non-canonical inflammasome activation by cytosolic LPS is a critical component of the host response to Gram-negative bacterial infection, however we lack a comprehensive understanding of the cellular processes that control this pathway. […] Lipofectamine RNAiMAX Transfection Reagent ([…]; Invitrogen) was added in […] serum-free, antibiotic-free media to plate wells using a Thermo Scientific Matrix WellMate and Microplate Stacker. […] The plates were read on an EnVision plate reader (PerkinElmer). […]
Screen size: about 53,000 sequences; about 3,700 (7%) were called active. This is one part of a sample in which actives are shown more often than they occur.
Threshold -0.03: z-score strictly smaller gives y, otherwise n.

Before answering, review these 5 worked examples.
{"columns": ["Chain", "Category label"],
 "data": [
  ["CGUUUCCUGCUCAAAUCCUTT against Abhd2", "y"],
  ["GCGCAUCGAAAAAUGGAUUTT against Rgl3", "n"],
  ["CCUGCACUACUGGAUUGGATT against Vill", "n"],
  ["GGAUGUUAAAGCCAUAUACTT against Msh6", "y"],
  ["GGAAAUGAGACGAAGGAGGTT against Kpna6", "y"]
]}

API: the following record is the query input.
z-score strictly < -0.03 for this sequence? GCCUAUUUGACGUGCAGAGTT against Crocc y
